Cited source for all entries: paper PMC5125937

Target: T1, EcZapD E22R (residues 1-247) (E. coli, UniProt P36680 1-247, E22R)
T1 sequence: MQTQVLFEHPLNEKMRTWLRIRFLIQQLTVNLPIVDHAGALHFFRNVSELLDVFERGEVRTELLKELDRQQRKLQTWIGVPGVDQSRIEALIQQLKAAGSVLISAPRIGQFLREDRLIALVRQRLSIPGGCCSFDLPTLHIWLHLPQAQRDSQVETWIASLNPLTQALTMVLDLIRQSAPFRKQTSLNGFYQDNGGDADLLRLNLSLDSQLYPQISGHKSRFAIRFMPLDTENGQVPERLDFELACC
Assay: BLI
pKd: −log10 of the molar value.
measured quantity: pKd

1. KEPDYLDIPAFLRKQAD [GST-FtsZ_(367-383)]: 4.17
